Value source: ChEMBL document CHEMBL5291721

# Target: Sodium-dependent dopamine transporter (Homo sapiens, UniProt Q01959); also: assay procedure not described here
# Sequence (Q01959 whole entry): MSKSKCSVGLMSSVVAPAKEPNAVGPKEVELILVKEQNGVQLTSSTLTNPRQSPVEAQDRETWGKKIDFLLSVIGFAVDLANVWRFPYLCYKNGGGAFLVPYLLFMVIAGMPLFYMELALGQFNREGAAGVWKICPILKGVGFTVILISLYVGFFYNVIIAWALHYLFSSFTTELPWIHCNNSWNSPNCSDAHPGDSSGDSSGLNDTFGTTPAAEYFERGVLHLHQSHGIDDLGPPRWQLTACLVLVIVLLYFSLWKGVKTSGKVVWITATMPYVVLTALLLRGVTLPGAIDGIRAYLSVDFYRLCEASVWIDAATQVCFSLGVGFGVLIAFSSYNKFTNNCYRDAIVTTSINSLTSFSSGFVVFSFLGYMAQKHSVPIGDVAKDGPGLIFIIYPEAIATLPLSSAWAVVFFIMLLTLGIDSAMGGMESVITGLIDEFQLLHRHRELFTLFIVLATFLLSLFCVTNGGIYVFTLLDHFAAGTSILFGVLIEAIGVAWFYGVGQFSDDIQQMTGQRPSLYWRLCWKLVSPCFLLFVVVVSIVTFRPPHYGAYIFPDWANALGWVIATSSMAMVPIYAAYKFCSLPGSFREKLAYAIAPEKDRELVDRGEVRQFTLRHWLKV
Where a SMILES comes first, the peptide text is derived from it. [ ]: non-standard residue; d: D form. pGlu = O=C1CC[C@@H](C(=O)O)N1; Thz = O=C(O)[C@@H]1CSCN1
Below, each of the molecules is paired with its reported AC50 value.

A selection of reference data follows.
Molecule | Target | Measured Property | Endpoint Value
CCOC(=O)[C@@H](N)Cc1ccc(-c2cc(O[C@H](c3ccc(Cl)cc3-n3ccc(C)n3)C(F)(F)F)nc(N)n2)cc1 | Sodium-dependent dopamine transporter (Homo sapiens, UniProt Q01959) | AC50 | 18 µM
Cn1cc(C(=O)[C@@H]2CCc3nc[nH]c3C2)c2ccccc21 | Sodium-dependent dopamine transporter (Homo sapiens, UniProt Q01959) | AC50 | > 30 µM
NNC(=O)c1ccncc1 | Sodium-dependent dopamine transporter (Homo sapiens, UniProt Q01959) | AC50 | > 30 µM
COc1cc(C(C)=O)ccc1OCCCN1CCC(c2noc3cc(F)ccc23)CC1 | Sodium-dependent dopamine transporter (Homo sapiens, UniProt Q01959) | AC50 | 5.95 µM
CN(Cc1cnc2nc(N)nc(N)c2n1)c1ccc(C(=O)N[C@@H](CCC(=O)O)C(=O)O)cc1 [METHOTREXATE] | Sodium-dependent dopamine transporter (Homo sapiens, UniProt Q01959) | AC50 | > 30 µM

**Query** Name the reported AC50 value associated with the molecule O=C1CC[C@@H](C(=O)N2CSC[C@H]2C(=O)O)N1 [PIDOTIMOD] ([pGlu]-[Thz]-OH)
**Result** > 30 µM

**Query** Name the reported AC50 value associated with the molecule CCOC(=O)C1=C(C)NC(C)=C(C(=O)OCC)C1c1ccccc1/C=C/C(=O)OC(C)(C)C
**Result** > 30 µM

**Query** Name the reported AC50 value associated with the molecule S=P(N1CC1)(N1CC1)N1CC1
**Result** 27 µM

**Query** Name the reported AC50 value associated with the molecule C[C@]12C=CC(=O)C=C1CC[C@@H]1[C@@H]2CC[C@]2(C)OC(=O)CC[C@@H]12
**Result** > 10 µM

**Query** Name the reported AC50 value associated with the molecule O=C1c2ccccc2C(=O)C1c1ccccc1
**Result** > 10 µM

* * *

# Target: Glucocorticoid receptor (Homo sapiens, UniProt P04150); also: assay procedure not described here
# Sequence (P04150 whole entry): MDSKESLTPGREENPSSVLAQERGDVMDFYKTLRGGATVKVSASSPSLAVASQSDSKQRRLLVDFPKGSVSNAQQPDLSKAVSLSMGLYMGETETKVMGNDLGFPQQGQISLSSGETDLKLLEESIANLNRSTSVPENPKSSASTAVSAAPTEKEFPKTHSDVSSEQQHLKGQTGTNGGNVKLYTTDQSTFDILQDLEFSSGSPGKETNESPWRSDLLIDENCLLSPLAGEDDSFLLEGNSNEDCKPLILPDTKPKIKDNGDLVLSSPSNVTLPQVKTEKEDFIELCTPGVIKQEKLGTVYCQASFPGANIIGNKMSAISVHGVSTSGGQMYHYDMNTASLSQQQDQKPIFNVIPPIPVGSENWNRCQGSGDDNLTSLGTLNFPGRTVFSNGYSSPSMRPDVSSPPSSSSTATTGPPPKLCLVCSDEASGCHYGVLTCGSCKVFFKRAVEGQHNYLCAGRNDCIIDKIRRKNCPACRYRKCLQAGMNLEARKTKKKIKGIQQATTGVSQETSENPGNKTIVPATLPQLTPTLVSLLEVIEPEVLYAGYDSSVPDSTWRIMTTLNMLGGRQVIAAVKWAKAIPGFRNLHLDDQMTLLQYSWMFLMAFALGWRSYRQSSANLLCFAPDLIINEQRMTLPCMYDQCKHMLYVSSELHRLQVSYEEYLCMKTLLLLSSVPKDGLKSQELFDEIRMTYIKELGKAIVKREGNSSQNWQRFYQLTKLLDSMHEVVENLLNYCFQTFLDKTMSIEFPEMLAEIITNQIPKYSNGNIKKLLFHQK
Below, each of the molecules is paired with its reported AC50 value.

**Query** Name the reported AC50 value associated with the molecule CC(C(=O)O)c1ccc2oc(-c3ccc(Cl)cc3)nc2c1 (stereo unspecified) [BENOXAPROFEN]
**Result** > 30 µM

**Query** Name the reported AC50 value associated with the molecule CN1Cc2c(N)cccc2C(c2ccccc2)C1 (stereo unspecified) [NOMIFENSINE]
**Result** > 30 µM

**Query** Name the reported AC50 value associated with the molecule Cc1cc(C)nc(NS(=O)(=O)c2ccc(N)cc2)n1 [SULFAMETHAZINE]
**Result** > 10 µM

**Query** Name the reported AC50 value associated with the molecule COc1cc(C(=O)NC2CCCNC2)cc(OC)c1OC (stereo unspecified) [TROXIPIDE]
**Result** > 30 µM

**Query** Name the reported AC50 value associated with the molecule CCCCCCCN(CC)CCCC(O)c1ccc(NS(C)(=O)=O)cc1 (stereo unspecified) [IBUTILIDE]
**Result** > 30 µM

**Query** Name the reported AC50 value associated with the molecule COc1cc(C)c(/C=C/C(C)=C/C=C/C(C)=C/C(=O)O)c(C)c1C [ACITRETIN]
**Result** > 30 µM

* * *

Parameter AC50, tested on D(3) dopamine receptor (Homo sapiens, UniProt P35462), listed per item. Also: assay procedure not described here.
Sequence (P35462 whole entry): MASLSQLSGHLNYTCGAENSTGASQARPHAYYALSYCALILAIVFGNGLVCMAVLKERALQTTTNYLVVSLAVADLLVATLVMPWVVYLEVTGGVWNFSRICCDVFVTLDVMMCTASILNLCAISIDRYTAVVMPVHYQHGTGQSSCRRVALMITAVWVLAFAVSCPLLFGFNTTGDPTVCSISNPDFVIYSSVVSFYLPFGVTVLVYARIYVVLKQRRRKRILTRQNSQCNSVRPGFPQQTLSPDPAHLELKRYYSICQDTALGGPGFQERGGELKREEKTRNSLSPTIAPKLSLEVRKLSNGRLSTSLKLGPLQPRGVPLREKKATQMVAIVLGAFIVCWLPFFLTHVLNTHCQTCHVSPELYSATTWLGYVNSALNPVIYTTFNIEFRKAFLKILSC

A selection of reference data follows.
Compound | AC50
CCc1nc(N)nc(N)c1-c1ccc(Cl)cc1 | > 30 µM
CCOC(=O)C(C)(C)Oc1ccc(Cl)cc1 [CLOFIBRATE] | > 30 µM
O=C1Nc2ccc(Cl)cc2C(c2ccccc2Cl)=NC1O (stereo unspecified) | > 10 µM
CC(C)(O/N=C(\C(=O)N[C@@H]1C(=O)N2C(C(=O)[O-])=C(C[n+]3ccccc3)CS[C@H]12)c1csc(N)n1)C(=O)O | > 300 µM
C[N+](C)(C)CCOP(=O)(O)OP(=O)([O-])OC[C@H]1O[C@@H](n2ccc(N)nc2=O)[C@H](O)[C@@H]1O | > 30 µM
CC(=O)c1ccc(S(=O)(=O)NC(=O)NC2CCCCC2)cc1 [ACETOHEXAMIDE] | > 30 µM

**Query** Name the reported AC50 value associated with the compound CC(C(=O)O)c1ccc2c(c1)CC(=O)c1ccccc1S2 (stereo unspecified)
**Result** > 30 µM

* * *

Parameter AC50, tested on 5-hydroxytryptamine receptor 2C (Homo sapiens), listed per item. Also: assay procedure not described here.
Sequence (P28335 whole entry): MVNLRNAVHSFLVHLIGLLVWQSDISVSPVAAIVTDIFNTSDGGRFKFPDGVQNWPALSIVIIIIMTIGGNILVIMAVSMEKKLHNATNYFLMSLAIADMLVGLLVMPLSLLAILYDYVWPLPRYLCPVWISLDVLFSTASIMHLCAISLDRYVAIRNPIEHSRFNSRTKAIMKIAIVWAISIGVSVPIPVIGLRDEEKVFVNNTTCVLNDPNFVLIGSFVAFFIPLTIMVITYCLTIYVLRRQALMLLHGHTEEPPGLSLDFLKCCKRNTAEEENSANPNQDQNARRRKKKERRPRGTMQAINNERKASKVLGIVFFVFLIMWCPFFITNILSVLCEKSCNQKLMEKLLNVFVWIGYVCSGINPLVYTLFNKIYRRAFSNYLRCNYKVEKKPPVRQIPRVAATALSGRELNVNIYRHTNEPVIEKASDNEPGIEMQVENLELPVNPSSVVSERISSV

A selection of reference data follows.
Molecule | Endpoint Value
O=C(/C=C/c1cccc(S(=O)(=O)Nc2ccccc2)c1)NO | > 30 µM
O=C1Nc2ccc(Cl)cc2C(c2ccccc2Cl)=NC1O (centres undefined) | > 30 µM
O=C(O)c1cccnc1Nc1cccc(C(F)(F)F)c1 | > 30 µM
CC(O)(CS(=O)(=O)c1ccc(F)cc1)C(=O)Nc1ccc(C#N)c(C(F)(F)F)c1 (centres undefined) [BICALUTAMIDE] | > 30 µM
O=C(O)Cc1ccccc1Oc1ccc(Cl)cc1Cl | > 30 µM
CC(C(=O)O)c1ccc2oc(-c3ccc(Cl)cc3)nc2c1 (centres undefined) | > 30 µM
CC(=O)[C@H]1CC[C@H]2[C@@H]3C[C@H](C)C4=CC(=O)CC[C@]4(C)[C@H]3[C@@H](O)C[C@]12C | > 30 µM
C[C@]12C/C(=C/O)C(=O)C[C@@H]1CC[C@@H]1[C@@H]2CC[C@@]2(C)[C@H]1CC[C@]2(C)O | > 30 µM

**Query** Please state recorded AC50 (tested on 5-hydroxytryptamine receptor 2C (Homo sapiens)) of CC(C)NC[C@H](O)COc1ccc(CC(N)=O)cc1; also: assay procedure not described here
**Result** > 10 µM

* * *

# Target: Neuropeptide Y receptor type 1 (Homo sapiens); also: assay procedure not described here
# Sequence (P25929 whole entry): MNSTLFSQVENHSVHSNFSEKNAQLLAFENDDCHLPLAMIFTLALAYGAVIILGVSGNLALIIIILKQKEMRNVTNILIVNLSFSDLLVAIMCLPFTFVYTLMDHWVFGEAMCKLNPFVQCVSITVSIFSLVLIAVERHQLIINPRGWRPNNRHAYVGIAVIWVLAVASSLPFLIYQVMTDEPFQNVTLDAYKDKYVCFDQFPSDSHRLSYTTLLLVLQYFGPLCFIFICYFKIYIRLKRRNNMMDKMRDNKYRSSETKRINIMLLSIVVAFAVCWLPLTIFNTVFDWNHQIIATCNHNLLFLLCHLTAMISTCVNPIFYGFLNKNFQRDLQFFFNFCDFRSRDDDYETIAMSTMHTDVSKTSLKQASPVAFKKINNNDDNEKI
Below, each of the molecules is paired with its reported AC50 value.

Molecule | Target | AC50
CCCN(CCC)S(=O)(=O)c1ccc(C(=O)O)cc1 [PROBENECID] | Neuropeptide Y receptor type 1 (Homo sapiens) | > 10 µM
CC(C)(Oc1ccc(CCNC(=O)c2ccc(Cl)cc2)cc1)C(=O)O [BEZAFIBRATE] | Neuropeptide Y receptor type 1 (Homo sapiens) | > 10 µM
C=C1c2cccc(O)c2C(=O)C2=C(O)[C@]3(O)C(=O)C(C(N)=O)=C(O)[C@@H](N(C)C)[C@@H]3[C@@H](O)[C@H]12 [METHACYCLINE] | Neuropeptide Y receptor type 1 (Homo sapiens) | > 30 µM

Please examine the following record next.
**Query** Please state recorded AC50 (tested on Neuropeptide Y receptor type 1 (Homo sapiens)) of CCOc1nc2cccc(C(=O)O)c2n1Cc1ccc(-c2ccccc2-c2nnn[nH]2)cc1; also: assay procedure not described here
**Result** > 10 µM

* * *

# Target: 5-hydroxytryptamine receptor 1A (Homo sapiens); also: assay procedure not described here
# Sequence (P08908 whole entry): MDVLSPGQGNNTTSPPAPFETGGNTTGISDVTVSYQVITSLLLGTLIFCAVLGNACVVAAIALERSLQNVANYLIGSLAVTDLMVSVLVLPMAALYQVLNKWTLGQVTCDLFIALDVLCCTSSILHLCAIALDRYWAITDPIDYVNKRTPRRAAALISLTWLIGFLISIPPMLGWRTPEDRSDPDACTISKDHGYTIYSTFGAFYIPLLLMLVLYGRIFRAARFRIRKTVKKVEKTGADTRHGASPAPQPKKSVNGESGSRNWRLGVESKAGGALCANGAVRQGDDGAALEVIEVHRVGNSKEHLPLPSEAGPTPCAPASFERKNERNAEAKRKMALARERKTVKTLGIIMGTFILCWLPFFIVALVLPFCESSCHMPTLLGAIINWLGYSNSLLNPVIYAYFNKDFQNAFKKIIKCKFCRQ
Measured Property: AC50

A selection of reference data follows.
Molecule | Target | AC50
CC(=O)[C@]1(N)Cc2c(O)c3c(c(O)c2[C@@H](O[C@H]2C[C@H](O)[C@H](O)CO2)C1)C(=O)c1ccccc1C3=O | 5-hydroxytryptamine receptor 1A (Homo sapiens) | > 30 µM
CC(=O)NCCCCCC(=O)O | 5-hydroxytryptamine receptor 1A (Homo sapiens) | > 30 µM

**Query** Name the reported AC50 value associated with the molecule CC(CN1c2ccccc2Sc2ccccc21)N(C)C (configuration not stated)
**Result** 0.7 µM

**Query** Name the reported AC50 value associated with the molecule O=C(O)Cc1ccccc1Oc1ccc(Cl)cc1Cl
**Result** > 30 µM

**Query** Name the reported AC50 value associated with the molecule CC(COc1ccccc1)NC(C)C(O)c1ccc(O)cc1 (configuration not stated)
**Result** 0.203 µM
